System: MT-2 cells
Test: Compounds' cytotoxicity assay in MT-2 cells (CellTiter-Glo)
Format: cell-based
Set-up: unit not given here
Settings: toxicity in MT-2 cells, 3 days
readout type: TC50 (PM)
I only need the number, thanks.

CC(C)C1=C2[C@H]3CC[C@@H]4[C@@]5(C)CC[C@H](OC(=O)CC(C)(C)C(=O)O)C(C)(C)[C@@H]5CC[C@@]4(C)[C@]3(C)CC[C@@]2(c2cc(=O)n(Cc3ccc(Cl)cn3)n2C)CC1=O [Compound 91-9]    26
CC(C)C1=C2[C@H]3CC[C@@H]4[C@@]5(C)CC[C@H](OC(=O)CC(C)(C)C(=O)O)C(C)(C)[C@@H]5CC[C@@]4(C)[C@]3(C)CC[C@@]2(c2cc(=O)n(CC(=O)N(C)C)n2C)CC1=O [Compound 91-8]    48
CC(C)C1=C2[C@H]3CC[C@@H]4[C@@]5(C)CC[C@H](OC(=O)CC(C)(C)C(=O)O)C(C)(C)[C@@H]5CC[C@@]4(C)[C@]3(C)CC[C@@]2(Nc2nnc(-c3ncc(Cl)cn3)o2)CC1=O [Compound 141-3]    22

Complete the entry with TC50 (PM) for CC(C)C1=C2[C@H]3CC[C@@H]4[C@@]5(C)CC[C@H](OC(=O)CC(C)(C)C(=O)O)C(C)(C)[C@@H]5CC[C@@]4(C)[C@]3(C)CC[C@@]2(c2cc(=O)n(-c3ccc(Cl)cc3)n2CCN(C)C)CC1=O [Compound 156-1] 19

====

Here, each record is paired with measured TC50 (PM) data.
Test system: MT-2 cells
Assay: Compounds' cytotoxicity assay in MT-2 cells (CellTiter-Glo)
Type: cell-based
Set-up: unit not given here
Conditions: toxicity in MT-2 cells, 3 days
Procedure: 3. Method for Compounds' Cytotoxicity Assay: The MT-2 cells are diluted to a needed concentration. 90 μl of the MT-2 cells suspension was added into 384-well plates containing 10 μl of the tested compounds. Compounds were dissolved in DMSO and tested as 11 points 3-fold serial dilutions. […] The Luciferase activity was measured by CellTiter-Glo® Luminescent Cell Viability Assay kit (Promega Corp., WI, USA). […]
I only need the number, thanks.

CNCCn1c(C[C@@]23CC[C@]4(C)[C@H](CC[C@@H]5[C@@]6(C)CC[C@H](OC(=O)CC(C)(C)C(=O)O)C(C)(C)[C@@H]6CC[C@]54C)C2=C(C(C)C)C(=O)C3)nnc1-c1ccc(Cl)cc1    27

Now for another entry.
Complete the entry with TC50 (PM) for "CC(C)C1=C2[C@H]3CC[C@@H]4[C@@]5(C)CC[C@H](OC(=O)CC(C)(C)C(=O)O)C(C)(C)[C@@H]5CC[C@@]4(C)[C@]3(C)CC[C@@]2(c2nnc(-c3ccccc3)o2)CC1=O" 100

====

Tested on: MT-2 cells
Assay: Compounds' cytotoxicity assay in MT-2 cells (CellTiter-Glo)
Type: cell-based
Design: unit not given here
Conditions: toxicity in MT-2 cells, 3 days
readout type: TC50 (PM)
I only need the number, thanks.

// worked examples, TC50 (PM) included
CC(C)C1=C2[C@H]3CC[C@@H]4[C@@]5(C)CC[C@H](OC(=O)CC(C)(C)C(=O)O)C(C)(C)[C@@H]5CC[C@@]4(C)[C@]3(C)CC[C@@]2(Cc2nnc(Cc3ccc(Cl)cc3)o2)CC1=O [Compound 33]    18
CC(C)C1=C2[C@H]3CC[C@@H]4[C@@]5(C)CC[C@H](OC(=O)CC(C)(C)C(=O)O)C(C)(C)[C@@H]5CC[C@@]4(C)[C@]3(C)CC[C@@]2([C@@H](O)c2nnc(-c3ncc(Cl)cn3)o2)CC1=O [Compound 127-5]    38
CC(C)C1=C2[C@H]3CC[C@@H]4[C@@]5(C)CC[C@H](OC(=O)CC(C)(C)C(=O)O)C(C)(C)[C@@H]5CC[C@@]4(C)[C@]3(C)CC[C@@]2(c2cc(=O)n(-c3ccc(Cl)cc3)n2C)CC1 [Compound 96-1]    17
CC(C)C1=C2[C@H]3CC[C@@H]4[C@@]5(C)CC[C@H](OC(=O)CC(C)(C)C(=O)O)C(C)(C)[C@@H]5CC[C@@]4(C)[C@]3(C)CC[C@@]2(c2nnc(-c3cccnc3)o2)CC1=O [Compound 27-9]    200
CC(C)C1=C2[C@H]3CC[C@@H]4[C@@]5(C)CC[C@H](OC(=O)CC(C)(C)C(=O)O)C(C)(C)[C@@H]5CC[C@@]4(C)[C@]3(C)CC[C@@]2(c2nnc(-c3ccc(Cl)cc3)n2CCN(C)C)CC1=O [Compound 116-3]    33

Complete the entry with TC50 (PM) for CC(C)C1=C2[C@H]3CC[C@@H]4[C@@]5(C)CC[C@H](OC(=O)CC(C)(C)C(=O)O)C(C)(C)[C@@H]5CC[C@@]4(C)[C@]3(C)CC[C@@]2(c2nnc(-c3ccc(C(F)(F)F)cn3)o2)CC1=O [Compound 27-11] 23

Complete the entry with TC50 (PM) for CC(C)C1=C2[C@H]3CC[C@@H]4[C@@]5(C)CC[C@H](OC(=O)CC(C)(C)C(=O)O)C(C)(C)[C@@H]5CC[C@@]4(C)[C@]3(C)CC[C@@]2(c2cc(=O)n(-c3ccc(Cl)cn3)n2C)CC1=O [Compound 98-7] 200

Complete the entry with TC50 (PM) for CC(C)C1=C2[C@H]3CC[C@@H]4[C@@]5(C)CC[C@H](OC(=O)CC(C)(C)C(=O)O)C(C)(C)[C@@H]5CC[C@@]4(C)[C@]3(C)CC[C@@]2([C@H](O)c2nnc(-c3ccc(Cl)cn3)o2)CC1=O [Compound 127-4] 200

Complete the entry with TC50 (PM) for COc1ccc(-n2c(=O)cc([C@@]34CC[C@]5(C)[C@H](CC[C@@H]6[C@@]7(C)CC[C@H](OC(=O)CC(C)(C)C(=O)O)C(C)(C)[C@@H]7CC[C@]65C)C3=C(C(C)C)C(=O)C4)n2C)cn1 [Compound 98-2] 44

Complete the entry with TC50 (PM) for CC(C)C1=C2[C@H]3CC[C@@H]4[C@@]5(C)CC[C@H](OC(=O)CC(C)(C)C(=O)O)C(C)(C)[C@@H]5CC[C@@]4(C)[C@]3(C)CC[C@@]2(c2nnc(-c3ccncc3)o2)CC1=O [Compound 27-13] 200

Complete the entry with TC50 (PM) for COc1ccc(-c2nnc(C[C@@]34CC[C@]5(C)[C@H](CC[C@@H]6[C@@]7(C)CC[C@H](OC(=O)CC(C)(C)C(=O)O)C(C)(C)[C@@H]7CC[C@]65C)C3=C(C(C)C)C(=O)C4)o2)nc1 [Compound 22-17] 200

Complete the entry with TC50 (PM) for CC(C)C1=C2[C@H]3CC[C@@H]4[C@@]5(C)CC[C@H](OC(=O)CC(C)(C)C(=O)O)C(C)(C)[C@@H]5CC[C@@]4(C)[C@]3(C)CC[C@@]2(Cc2nnc(-c3ccc(Cl)cc3)n2CCN)CC1=O [Compound 116-4] 33

Complete the entry with TC50 (PM) for CC(C)C1=C2[C@H]3CC[C@@H]4[C@@]5(C)CC[C@H](OC(=O)CC(C)(C)C(=O)O)C(C)(C)[C@@H]5CC[C@@]4(C)[C@]3(C)CC[C@@]2(c2cc(=O)n(CC(=O)O)n2C)CC1=O [Compound 91-5] 160

Complete the entry with TC50 (PM) for CC(C)C1=C2[C@H]3CC[C@@H]4[C@@]5(C)CC[C@H](OC(=O)CC(C)(C)C(=O)O)C(C)(C)[C@@H]5CC[C@@]4(C)[C@]3(C)CC[C@@]2(c2cc(=O)n(-c3ccc(Cl)cc3)n2CCN)CC1=O [Compound 155-1] 78

Complete the entry with TC50 (PM) for CCn1c([C@@]23CC[C@]4(C)[C@H](CC[C@@H]5[C@@]6(C)CC[C@H](OC(=O)CC(C)(C)C(=O)O)C(C)(C)[C@@H]6CC[C@]54C)C2=C(C(C)C)C(=O)C3)cc(=O)n1-c1ccc(Cl)cn1 [Compound 98-6] 13

Complete the entry with TC50 (PM) for CC(C)C1=C2[C@H]3CC[C@@H]4[C@@]5(C)CC[C@H](OC(=O)CC(C)(C)C(=O)O)C(C)(C)[C@@H]5CC[C@@]4(C)[C@]3(C)CC[C@@]2(Cc2cc(=O)n(-c3ccc(Cl)cn3)n2C)CC1=O [98′-2] 56

Complete the entry with TC50 (PM) for CC(C)C1=C2[C@H]3CC[C@@H]4[C@@]5(C)CC[C@H](OC(=O)CC(C)(C)C(=O)O)C(C)(C)[C@@H]5CC[C@@]4(C)[C@]3(C)CC[C@@]2(Cc2nnc(-c3ccc(Br)cn3)o2)CC1=O [Compound 22-14] 200
